Test system: ABUTH
Experiment: Pre-emergence herbicidal activity on ABUTH (velvetleaf)
Format: in vivo, Abutilon theophrasti
Conditions: lowest tested rate giving 80% or greater inhibition, approx. 14 days after planting and treating, greenhouse
Provide the reported Pre-emergence activity (GR80) on ABUTH of each item.
Give the value in g/ha but do not write g/ha after it.

Request body: readout Pre-emergence activity (GR80) on ABUTH, system ABUTH, query CC(CNC(=O)c1cccc(C(F)(F)F)c1)NC(=O)c1ccccc1Cl (stereo not drawn) . Return the value. 750

Request body: readout Pre-emergence activity (GR80) on ABUTH, system ABUTH, query Cc1ccc(Cl)cc1C(=O)NC(C)CNC(=O)c1cccc(C(F)(F)F)c1 (stereo not drawn) . Return the value. 250

Request body: readout Pre-emergence activity (GR80) on ABUTH, system ABUTH, query CC(CNC(=O)c1cccc(C(F)(F)F)c1)NC(=O)c1cccc(Br)c1F (stereo not drawn) . Return the value. 500

Request body: readout Pre-emergence activity (GR80) on ABUTH, system ABUTH, query Cc1c(F)cccc1C(=O)NC(C)CNC(=O)c1cccc(C(F)(F)F)c1 (stereo not drawn) . Return the value. 125

Request body: readout Pre-emergence activity (GR80) on ABUTH, system ABUTH, query CC(CNC(=O)c1cccc(C(F)(F)F)c1)NC(=O)c1cccc(F)c1F (stereo not drawn) . Return the value. 500

Request body: readout Pre-emergence activity (GR80) on ABUTH, system ABUTH, query Cc1c(Br)cccc1C(=O)NC(C)CNC(=O)c1cccc(C(F)(F)F)c1 (stereo not drawn) . Return the value. 750

Request body: readout Pre-emergence activity (GR80) on ABUTH, system ABUTH, query CC(CNC(=O)c1cccc(C(F)(F)F)c1)NC(=O)c1cccc(Cl)c1Cl (stereo not drawn) . Return the value. 750

----------
System: CONAR
Assay: Post-emergence herbicidal activity on CONAR (field bindweed)
Format: in vivo, Convolvulus arvensis
Conditions: post-emergence spray; lowest tested rate with 80% or greater inhibition; about 14 days after treatment
outcome_measure: Post-emergence activity (GR80) CONAR

Look over these answered cases.
INSERT INTO assay_data (compound, target_desc, reported_measurement) VALUES
  ('CC(CNC(=O)c1cccc(C(F)(F)F)c1)NC(=O)c1ccccc1SCCCCl (stereo not drawn) [Example 119]', 'CONAR', 'phyto'),
  ('C[C@H](CNC(=O)c1cccc(C(F)(F)F)c1)NC(=O)Oc1ccc(F)cc1 [Example 230]', 'CONAR', 'phyto'),
  ('C[C@H](CNC(=O)c1cccc(C(F)(F)F)c1)NC(=O)Oc1ccc(Cl)cc1 [Example 231]', 'CONAR', 'phyto'),
  ('CC(CNC(=O)c1cccc(C(F)(F)F)c1)NC(=O)c1cccc(C(F)(F)F)c1 (stereo not drawn) [Example 5]', 'CONAR', '750 g/ha'),
  ('C=C(C)CSc1ccccc1C(=O)NC(C)CNC(=O)c1cccc(C(F)(F)F)c1 (stereo not drawn) [Example 124]', 'CONAR', 'phyto');

Below: the item to evaluate.
I am curious: what Post-emergence activity (GR80) CONAR value has been reported for CC(CNC(=O)c1cccc(C(F)(F)F)c1)NC(=O)c1cccc(I)c1 (stereo not drawn) [Example 59] ? phyto

----------
Test system: PANDI
Assay: Post-emergence herbicidal activity on PANDI (fall panicum)
Type: in vivo, Panicum dichotomiflorum
Details: post-emergence spray; lowest tested rate with 80% or greater inhibition; about 14 days after treatment
outcome_measure: Post-emergence activity (GR80) PANDI

INSERT INTO results (molecule, reported_measurement) VALUES
  ('CC(CNC(=O)c1cccc(C(F)(F)F)c1)NC(=O)c1ccc(C(F)(F)F)c(F)c1 (stereo not shown)', 'phyto'),
  ('O=C(NCC(CCl)NC(=O)c1cccc(C(F)(F)F)c1)c1cccc(C(F)(F)F)c1 (stereo not shown)', '[empty]'),
  ('CC(CNC(=O)c1cccc(C(F)(F)F)c1)NC(=O)c1ccccc1SCCCCl (stereo not shown)', '[empty]'),
  ('O=C(NCC(CO)NC(=O)c1cccc(C(F)(F)F)c1)c1cccc(C(F)(F)F)c1 (stereo not shown)', '[empty]');
